# study_system: DNA topoisomerase 1 (Homo sapiens)
# Sequence (whole entry): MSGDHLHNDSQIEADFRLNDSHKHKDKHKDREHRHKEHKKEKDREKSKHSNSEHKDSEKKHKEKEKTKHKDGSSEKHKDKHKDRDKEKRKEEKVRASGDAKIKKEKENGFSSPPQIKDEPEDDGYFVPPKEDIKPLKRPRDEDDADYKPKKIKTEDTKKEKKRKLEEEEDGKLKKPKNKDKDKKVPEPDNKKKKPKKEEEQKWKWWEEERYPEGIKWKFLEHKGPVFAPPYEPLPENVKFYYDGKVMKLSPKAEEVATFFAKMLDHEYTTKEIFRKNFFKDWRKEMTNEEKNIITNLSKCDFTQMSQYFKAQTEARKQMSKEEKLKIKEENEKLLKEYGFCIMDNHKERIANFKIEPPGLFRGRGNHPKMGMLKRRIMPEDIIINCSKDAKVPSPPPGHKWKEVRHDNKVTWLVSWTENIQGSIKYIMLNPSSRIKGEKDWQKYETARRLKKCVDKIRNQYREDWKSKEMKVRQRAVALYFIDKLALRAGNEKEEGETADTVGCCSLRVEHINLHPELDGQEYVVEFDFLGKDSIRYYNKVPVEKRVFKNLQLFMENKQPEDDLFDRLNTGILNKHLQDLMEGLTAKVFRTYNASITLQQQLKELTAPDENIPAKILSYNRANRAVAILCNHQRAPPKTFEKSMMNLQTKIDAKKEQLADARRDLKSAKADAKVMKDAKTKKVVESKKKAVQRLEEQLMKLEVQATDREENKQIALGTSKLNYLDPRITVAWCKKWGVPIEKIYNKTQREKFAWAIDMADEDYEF
# experiment: Inhibition of recombinant human topoisomerase 1-mediated relaxation of supercoiled pBR322 DNA at 100 uM measured after 30 mins by ethidium bromide staining based agarose gel electrophoresis relative to control
measured_parameter: inhibition (%)

Oc1ccc(-c2cc(-c3ccc(C(F)(F)F)cc3)nc3c2Cc2ccc(O)cc2-3)cc1; 100
Oc1ccc(-c2cc(-c3ccccc3)c3c(n2)-c2c(O)cccc2C3)cc1; 1.1
Oc1ccc2c(c1)Cc1c(-c3ccccc3O)cc(-c3cccc(C(F)(F)F)c3)nc1-2; 0
Oc1cccc(-c2cc(-c3cccc(C(F)(F)F)c3)nc3c2Cc2cc(O)ccc2-3)c1; 10.2
Oc1ccc(-c2cc(-c3cccc(F)c3)nc3c2Cc2c(O)cccc2-3)cc1; 8.6

1: Oc1ccc2c(c1)Cc1c(-c3ccccc3O)cc(-c3ccccc3Cl)nc1-2
2: Oc1ccccc1-c1cc(-c2ccccc2)nc2c1Cc1c(O)cccc1-2
3: Oc1ccc(-c2cc(-c3cccc(Cl)c3)nc3c2Cc2c(O)cccc2-3)cc1
4: Oc1cccc(-c2cc(-c3ccc(C(F)(F)F)cc3)nc3c2Cc2cc(O)ccc2-3)c1
Data request: Endpoint returns the given compounds ordered by ascending inhibition. Reply: labels, ordered per the request.
Data returned: 2, 3, 4, 1

A: Oc1ccc(-c2cc(-c3cccc(Cl)c3)c3c(n2)-c2cc(O)ccc2C3)cc1
B: Oc1ccc(-c2cc(-c3ccc(Cl)cc3)nc3c2Cc2ccc(O)cc2-3)cc1
Data request: Parameter check: reported inhibition is higher for which label, A or B ? Response format: the label of the selected entry.
Data returned: A

* * *

# Tested on: DU-145
# experiment: Antiproliferative activity against human DU145 cells measured after 72 hrs by EZ-Cytox assay
# Assay type: functional, cell-based
# conditions: DU-145, 72 h
In this section we review reported pIC50 values for a set of compounds.
To interpret pIC50, take it as minus log10 of a concentration measured in moles per litre.

A selection of reference data follows.
Oc1ccccc1-c1cc(-c2cccc(F)c2)nc2c1Cc1c(O)cccc1-2; 5.40
Oc1ccc(-c2cc(-c3ccccc3)c3c(n2)-c2cc(O)ccc2C3)cc1; 6.24
Oc1cccc(-c2cc(-c3ccccc3Cl)nc3c2Cc2ccc(O)cc2-3)c1; 6.24
Oc1ccc(-c2cc(-c3ccccc3F)nc3c2Cc2cccc(O)c2-3)cc1; 4.99
Oc1ccc(-c2cc(-c3ccc(C(F)(F)F)cc3)nc3c2Cc2cc(O)ccc2-3)cc1; 5.94
Oc1cccc(-c2cc(-c3ccccc3Cl)c3c(n2)-c2cc(O)ccc2C3)c1; 5.69

Data request: For the compound Oc1ccccc1-c1cc(-c2ccccc2Cl)nc2c1Cc1c(O)cccc1-2 , give its measured pIC50 value.
Data returned: 6.08

Data request: Recall and state the measured pIC50 for Oc1cccc(-c2cc(-c3ccccc3)nc3c2Cc2cc(O)ccc2-3)c1 .
Data returned: 6.22
